Reference source: patent US8119672B2

Please respond with reported Meta Position Solubiity for every item in the list.
- Test Name: Solubility in ethanol/propylene glycol/water (85:10:5)
- Type: physicochemical
- Condition: R1 in meta position (compound of the invention); ethanol/propylene glycol/water (85:10:5) by volume
- Procedure: The solubilities are measured in ethanol/propylene glycol/water (85:10:5) (proportions are by volume).
Value and unit, in that order.

Consider the compound CCN(CC)c1cccc(C(c2cc(C=Nn3nnnc3C)ccc2O)c2cc(C=Nn3nnnc3C)ccc2O)c1 (centres unmarked) and give its measured Meta Position Solubiity.
1.45 mg/mL

I'd like to know its Meta Position Solubiity. The compound in question is CCOc1cccc(C(c2cc(C=Nn3nnnc3C)ccc2O)c2cc(C=Nn3nnnc3C)ccc2O)c1 (centres unmarked)
1.85 mg/mL

Value lookup for Meta Position Solubiity; key = CCCc1cccc(C(c2cc(C=Nn3nnnc3C)ccc2O)c2cc(C=Nn3nnnc3C)ccc2O)c1 (centres unmarked)
1.9 mg/mL

Would you mind telling me what Meta Position Solubiity value was observed for Cc1nnnn1N=Cc1ccc(O)c(C(c2cccc(N(C)C)c2)c2cc(C=Nn3nnnc3C)ccc2O)c1 (centres unmarked) ?
2.10 mg/mL

Data request, read-out Meta Position Solubiity, for Cc1nnnn1N=Cc1ccc(O)c(C(c2cccc([N+](=O)[O-])c2)c2cc(C=Nn3nnnc3C)ccc2O)c1 (centres unmarked)
0.98 mg/mL
